target: Substance-P receptor (Cavia porcellus, UniProt P30547)
Sequence (P30547 whole entry): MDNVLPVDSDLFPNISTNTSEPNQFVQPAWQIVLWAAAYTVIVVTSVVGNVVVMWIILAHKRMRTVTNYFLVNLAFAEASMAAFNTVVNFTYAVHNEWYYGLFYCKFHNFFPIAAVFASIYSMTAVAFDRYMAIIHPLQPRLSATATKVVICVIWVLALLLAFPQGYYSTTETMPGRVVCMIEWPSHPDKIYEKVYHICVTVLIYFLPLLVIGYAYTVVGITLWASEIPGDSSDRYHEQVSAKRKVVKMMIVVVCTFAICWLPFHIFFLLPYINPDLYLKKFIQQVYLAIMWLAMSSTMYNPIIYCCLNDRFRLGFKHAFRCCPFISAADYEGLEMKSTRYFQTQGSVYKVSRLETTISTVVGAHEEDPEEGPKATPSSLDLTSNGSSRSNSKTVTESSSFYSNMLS
// NB: equality with 0.03 µM counts as n; only IC50 strictly below is y

**Query** Below 0.03 µM on IC50? Entry COc1cc(C(=O)N2CO[C@](CCN3CCC4(CC3)NC(=O)Cc3ccccc34)(c3ccc(F)c(F)c3)C2)cc(OC)c1OC
**Result** n

**Query** Same read-out for COc1cc(C(=O)N2CO[C@](CCN3CCC(C(N)=O)(c4ccccc4)CC3)(c3ccc(Cl)c(Cl)c3)C2)cc(OC)c1OC ?
**Result** y

**Query** Same read-out for COc1cc(C(=O)N2CO[C@](CCN3CCC4(CC3)C(=O)N(C)c3ccccc34)(c3ccc(Cl)c(Cl)c3)C2)cc(OC)c1OC ?
**Result** y

**Query** Same read-out for COc1cc(C(=O)N2CO[C@](CCN3CCC(C(=O)N(C)C)(c4ccccc4)CC3)(c3ccc(Cl)c(Cl)c3)C2)cc(OC)c1OC ?
**Result** y

**Query** Same read-out for COc1cc(C(=O)N2CO[C@](CCN3CCC(C(N)=O)(c4ccccc4)CC3)(c3ccc(F)cc3)C2)cc(OC)c1OC ?
**Result** n

**Query** Same read-out for COc1cc(C(=O)N2CO[C@](CCN3CCC(C(=O)NCc4ccccc4)CC3)(c3ccc(Cl)c(Cl)c3)C2)cc(OC)c1OC ?
**Result** n

**Query** Same read-out for COc1ccc(C(=O)N2CO[C@](CCN3CCC(C(N)=O)(c4ccccc4)CC3)(c3ccc(Cl)c(Cl)c3)C2)cc1 ?
**Result** n

**Query** Same read-out for COc1cc(C(=O)N2CO[C@](CCN3CCC(C(N)=O)(c4ccccc4)CC3)(c3ccc(Cl)cc3)C2)cc(OC)c1OC ?
**Result** n

**Query** Same read-out for COc1cc(C(=O)N2CO[C@](CCN3CCC(C(=O)N(C)C)(c4ccccc4)CC3)(c3ccc(F)cc3)C2)cc(OC)c1OC ?
**Result** y

**Query** Same read-out for COc1cc(C(=O)N2CO[C@](CCCN3CCC(C(N)=O)(c4ccccc4)CC3)(c3ccc(Cl)c(Cl)c3)C2)cc(OC)c1OC ?
**Result** n

**Query** Same read-out for COc1cc(C(=O)N2CO[C@](CCN3CCC(C(N)=O)(c4ccccc4)CC3)(c3ccc(F)c(F)c3)C2)cc(OC)c1OC ?
**Result** y

**Query** Same read-out for COc1cc(C(=O)N2CO[C@](CCN3CCC4(CC3)c3ccccc3CS4(=O)=O)(c3ccc(Cl)c(Cl)c3)C2)cc(OC)c1OC ?
**Result** n

**Query** Same read-out for COc1cc(C(=O)N2CO[C@](CCN3CCC(C(=O)N(C)C)(c4ccccc4)CC3)(c3ccc(Cl)cc3)C2)cc(OC)c1OC ?
**Result** n

**Query** Same read-out for COc1cc(C(=O)N2CO[C@](CCN3CCC4(CC3)NC(=O)Cc3ccccc34)(c3ccc(Cl)c(Cl)c3)C2)cc(OC)c1OC ?
**Result** y

**Query** Same read-out for COc1cc(C(=O)N2CO[C@](CCN3CCC4(CC3)c3ccccc3C[S+]4[O-])(c3ccc(F)cc3)C2)cc(OC)c1OC (stereo partly specified) ?
**Result** y

**Query** Same read-out for COc1cc(C(=O)N2CO[C@](CCN3CCC4(CC3)C(=O)NCN4c3ccccc3)(c3ccc(Cl)c(Cl)c3)C2)cc(OC)c1OC ?
**Result** y
